// provenance: patent US9181266B2

# collection of IC50 values tested on PARP2 (Mus musculus (Mouse))

| CHEM_SMILES | VALUE_RELATION_SIGN | IC50 [µM] |
| --- | --- | --- |
| COCCN(Cc1nc2c(c(=O)[nH]1)COCC2)C(=O)CN1CCC(C(=O)c2ccc(OC)cc2)CC1 | > | 19 |
| O=C(c1ccc(F)cc1)C1CCN(CC(=O)N(Cc2nc3c(c(=O)[nH]2)COCC3)C[C@@H]2CCCO2)CC1 | > | 19 |
| COc1ccc(C(=O)C2CCN(CC(=O)NCc3nc4c(c(=O)[nH]3)CCC4)CC2)cc1 | = | 4.62 |
| COCCOc1ccc(C(=O)C2CCN(CC(=O)NCc3nc4c(c(=O)[nH]3)COCC4)CC2)cc1 | = | 2.37 |
| O=C(CN1CCC(C(=O)c2ccc3c(c2)CCO3)CC1)NCc1nc2c(c(=O)[nH]1)COCC2 | = | 4.53 |
| COc1ccc(CN(Cc2nc3c(c(=O)[nH]2)COCC3)C(=O)CN2CCC(C(=O)c3ccc(F)cc3)CC2)cc1 | > | 19 |
| O=C(CN1CCC(C(=O)c2ccc(OC3CCOCC3)cc2)CC1)NCc1nc2c(c(=O)[nH]1)COCC2 | = | 2.84 |

---

Parameter pIC50: see the listing below.
# TARGET_SYSTEM: PARP2 (Mus musculus (Mouse), UniProt O88554)
# Sequence (O88554 whole entry): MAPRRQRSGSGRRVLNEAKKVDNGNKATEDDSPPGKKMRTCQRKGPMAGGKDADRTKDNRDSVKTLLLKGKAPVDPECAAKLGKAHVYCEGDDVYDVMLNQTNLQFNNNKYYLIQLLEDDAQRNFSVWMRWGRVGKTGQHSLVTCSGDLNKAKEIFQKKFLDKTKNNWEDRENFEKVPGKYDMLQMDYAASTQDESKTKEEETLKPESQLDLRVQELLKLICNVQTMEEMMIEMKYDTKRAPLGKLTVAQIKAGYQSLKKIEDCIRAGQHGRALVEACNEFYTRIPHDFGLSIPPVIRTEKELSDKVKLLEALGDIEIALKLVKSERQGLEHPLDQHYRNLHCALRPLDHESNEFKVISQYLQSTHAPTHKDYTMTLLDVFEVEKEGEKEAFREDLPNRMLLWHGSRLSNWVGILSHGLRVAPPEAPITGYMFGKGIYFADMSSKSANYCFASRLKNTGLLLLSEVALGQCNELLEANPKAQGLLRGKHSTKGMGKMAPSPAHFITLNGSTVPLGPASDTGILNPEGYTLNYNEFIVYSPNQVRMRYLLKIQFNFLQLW
pIC50: −log10 of the molar value.

| CHEM_SMILES | pIC50 |
| --- | --- |
| CC[C@@H](C)N(Cc1nc2c(c(=O)[nH]1)COCC2)C(=O)CN1CCC(C(=O)c2ccc(F)cc2)CC1 | < 4.72 |
| CC[C@H](C)N(Cc1nc2c(c(=O)[nH]1)COCC2)C(=O)CN1CCC(C(=O)c2ccc(F)cc2)CC1 | < 4.72 |
| CCOc1ccc(C(=O)C2CCN(CC(=O)NCc3nc4c(c(=O)[nH]3)COCC4)CC2)cc1 | 5.49 |
| O=C(c1ccc(F)cc1)C1CCN(CC(=O)N(Cc2nc3c(c(=O)[nH]2)COCC3)CC2CC2)CC1 | < 4.72 |

---

# collection of log10 of IC50 values tested on human tankyrase 1 PARP catalytic domain, TNKS1P (Homo sapiens (Human))
# Sequence (O95271 1112-1317): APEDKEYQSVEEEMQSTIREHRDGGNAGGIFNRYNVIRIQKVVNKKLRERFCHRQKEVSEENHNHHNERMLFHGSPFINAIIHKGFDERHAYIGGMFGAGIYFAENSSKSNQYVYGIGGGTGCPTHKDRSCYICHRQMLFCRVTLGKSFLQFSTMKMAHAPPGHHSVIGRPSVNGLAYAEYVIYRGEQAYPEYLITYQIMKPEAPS
READOUT: log10 of IC50 (log10 of the value in nM)

| COMPOUND | TARGET_SYSTEM | READOUT | NUMBER |
| --- | --- | --- | --- |
| O=C(CN1CCC(C(=O)c2ccc(OCCC3CC3)cc2)CC1)NCc1nc2c(c(=O)[nH]1)COCC2 | human tankyrase 1 PARP catalytic domain, TNKS1P (Homo sapiens (Human)) | log10 of IC50 | 1.32 |
| CC[C@@H](C)N(Cc1nc2c(c(=O)[nH]1)COCC2)C(=O)CN1CCC(C(=O)c2ccc(F)cc2)CC1 | human tankyrase 1 PARP catalytic domain, TNKS1P (Homo sapiens (Human)) | log10 of IC50 | 1.63 |
| COc1ccccc1C(=O)C1CCN(CC(=O)N(Cc2nc3c(c(=O)[nH]2)COCC3)CC(F)F)CC1 | human tankyrase 1 PARP catalytic domain, TNKS1P (Homo sapiens (Human)) | log10 of IC50 | 2.62 |
| COc1ccc(C(=O)C2CCN(CC(=O)N(Cc3nc4c(c(=O)[nH]3)COCC4)CC(F)F)CC2)cc1 | human tankyrase 1 PARP catalytic domain, TNKS1P (Homo sapiens (Human)) | log10 of IC50 | 1.26 |
| N#Cc1ccc(CN(Cc2nc3c(c(=O)[nH]2)COCC3)C(=O)CN2CCC(C(=O)c3ccc(F)cc3)CC2)s1 | human tankyrase 1 PARP catalytic domain, TNKS1P (Homo sapiens (Human)) | log10 of IC50 | 1.72 |
| COc1cccc(CN(Cc2nc3c(c(=O)[nH]2)COCC3)C(=O)CN2CCC(C(=O)c3ccc(F)cc3)CC2)c1 | human tankyrase 1 PARP catalytic domain, TNKS1P (Homo sapiens (Human)) | log10 of IC50 | 1.97 |
| COCCN(Cc1nc2c(c(=O)[nH]1)COCC2)C(=O)CN1CCC(C(=O)c2ccc(OC)cc2)CC1 | human tankyrase 1 PARP catalytic domain, TNKS1P (Homo sapiens (Human)) | log10 of IC50 | 1.54 |
| Cc1ccc(C(=O)C2CCN(CC(=O)NCc3nc4c(c(=O)[nH]3)COCC4)CC2)cc1 | human tankyrase 1 PARP catalytic domain, TNKS1P (Homo sapiens (Human)) | log10 of IC50 | 1.81 |
| O=C(CN1CCC2(CC1)Cc1cc(F)ccc1C2=O)NCc1nc2c(c(=O)[nH]1)COCC2 | human tankyrase 1 PARP catalytic domain, TNKS1P (Homo sapiens (Human)) | log10 of IC50 | 1.40 |
| CC[C@H](C)CN(Cc1nc2c(c(=O)[nH]1)COCC2)C(=O)CN1CCC(C(=O)c2ccc(F)cc2)CC1 | human tankyrase 1 PARP catalytic domain, TNKS1P (Homo sapiens (Human)) | log10 of IC50 | 1.57 |
| COc1ccc(C(=O)C2CCN(CC(=O)N(Cc3nc4c(c(=O)[nH]3)CCCCC4)CC3CC3)CC2)cc1 | human tankyrase 1 PARP catalytic domain, TNKS1P (Homo sapiens (Human)) | log10 of IC50 | 2.85 |
| COc1ccc(C(=O)C2CCN(CC(=O)NCc3nc4c(c(=O)[nH]3)COCC4)CC2)cc1OC | human tankyrase 1 PARP catalytic domain, TNKS1P (Homo sapiens (Human)) | log10 of IC50 | 1.62 |
| O=C(c1ccc(F)cc1)C1CCN(CC(=O)N(Cc2nc3c(c(=O)[nH]2)COCC3)C[C@H]2CCCO2)CC1 | human tankyrase 1 PARP catalytic domain, TNKS1P (Homo sapiens (Human)) | log10 of IC50 | 2.17 |
| O=C(CN1CCC(C(=O)c2ccc3c(c2)CCO3)CC1)NCc1nc2c(c(=O)[nH]1)COCC2 | human tankyrase 1 PARP catalytic domain, TNKS1P (Homo sapiens (Human)) | log10 of IC50 | 1.60 |
| O=C(CN1CCC2(CC1)Cc1cc(F)ccc1C2=O)N(Cc1nc2c(c(=O)[nH]1)COCC2)CC1CC1 | human tankyrase 1 PARP catalytic domain, TNKS1P (Homo sapiens (Human)) | log10 of IC50 | 1.23 |
| O=C(CN1CCC(C(=O)N2CCc3ccccc3C2)CC1)NCc1nc2c(c(=O)[nH]1)COCC2 | human tankyrase 1 PARP catalytic domain, TNKS1P (Homo sapiens (Human)) | log10 of IC50 | 3.48 |
| CN(Cc1nc2c(c(=O)[nH]1)COCC2)C(=O)CN1CCC(C(=O)c2ccc(F)cc2)CC1 | human tankyrase 1 PARP catalytic domain, TNKS1P (Homo sapiens (Human)) | log10 of IC50 | 2.38 |
| COc1ccc(C(=O)C2CCN(CC(=O)NCc3cc4c(c(=O)[nH]3)COCC4)CC2)cc1 | human tankyrase 1 PARP catalytic domain, TNKS1P (Homo sapiens (Human)) | log10 of IC50 | 2.00 |
| COc1ccc(C(=O)C2CCN(CC(=O)NCc3nc(C)c(C)c(=O)[nH]3)CC2)cc1 | human tankyrase 1 PARP catalytic domain, TNKS1P (Homo sapiens (Human)) | log10 of IC50 | 1.60 |
| O=C(c1ccc(OC(F)(F)F)cc1)C1CCN(CC(=O)N(Cc2nc3c(c(=O)[nH]2)COCC3)CC2CC2)CC1 | human tankyrase 1 PARP catalytic domain, TNKS1P (Homo sapiens (Human)) | log10 of IC50 | 1.57 |
| C#CCN(Cc1nc2c(c(=O)[nH]1)COCC2)C(=O)CN1CCC(C(=O)c2ccc(F)cc2)CC1 | human tankyrase 1 PARP catalytic domain, TNKS1P (Homo sapiens (Human)) | log10 of IC50 | 1.63 |
| CC(c1cccs1)N(Cc1nc2c(c(=O)[nH]1)COCC2)C(=O)CN1CCC(C(=O)c2ccc(F)cc2)CC1 (centres unmarked) | human tankyrase 1 PARP catalytic domain, TNKS1P (Homo sapiens (Human)) | log10 of IC50 | 1.68 |
| O=C(c1ccc(F)cc1)C1CCN(CC(=O)N(Cc2cccnc2)Cc2nc3c(c(=O)[nH]2)COCC3)CC1 | human tankyrase 1 PARP catalytic domain, TNKS1P (Homo sapiens (Human)) | log10 of IC50 | 2.33 |
| O=C(c1ccc(F)cc1)C1CCN(CC(=O)N(Cc2nc3c(c(=O)[nH]2)COCC3)CC(F)(F)F)CC1 | human tankyrase 1 PARP catalytic domain, TNKS1P (Homo sapiens (Human)) | log10 of IC50 | 1.74 |
| C[C@@H](C1CC1)N(Cc1nc2c(c(=O)[nH]1)COCC2)C(=O)CN1CCC(C(=O)c2ccc(F)cc2)CC1 | human tankyrase 1 PARP catalytic domain, TNKS1P (Homo sapiens (Human)) | log10 of IC50 | 1.62 |
| CCCOc1ccc(C(=O)C2CCN(CC(=O)NCc3nc4c(c(=O)[nH]3)COCC4)CC2)cc1 | human tankyrase 1 PARP catalytic domain, TNKS1P (Homo sapiens (Human)) | log10 of IC50 | 1.36 |
| COc1ccc2c(C3CCN(CC(=O)NCc4nc5c(c(=O)[nH]4)COCC5)CC3)n[nH]c2c1 | human tankyrase 1 PARP catalytic domain, TNKS1P (Homo sapiens (Human)) | log10 of IC50 | 3.17 |
| C[C@H](c1ccc(F)cc1)N(Cc1nc2c(c(=O)[nH]1)COCC2)C(=O)CN1CCC(C(=O)c2ccc(F)cc2)CC1 | human tankyrase 1 PARP catalytic domain, TNKS1P (Homo sapiens (Human)) | log10 of IC50 | 2.02 |
| COc1ccc(CN(Cc2nc3c(c(=O)[nH]2)COCC3)C(=O)CN2CCC(C(=O)c3ccc(F)cc3)CC2)cc1 | human tankyrase 1 PARP catalytic domain, TNKS1P (Homo sapiens (Human)) | log10 of IC50 | 1.82 |
